The reader will find reported Peptide remaining values listed item by item below.
experiment: Resistance to proteolytic degradation in fetal bovine serum; format: in vitro ADME; settings: 25% fetal bovine serum in water, 37 °C, LC peak area, time 0 = 100; 0.5 h; replicate 1
No end group written: not given here.
# output: bare number, no unit

[
  {
    "SUBSTANCE": "GLLKRIKTLL-NH2 [Anoplin, reference compound]",
    "Peptide remaining": 22.7
  },
  {
    "SUBSTANCE": "ILGAILNVLKSLG-NH2 [PV]",
    "Peptide remaining": 98
  },
  {
    "SUBSTANCE": "FLGAIGNVLKSIL-NH2 [TV]",
    "Peptide remaining": 0
  },
  {
    "SUBSTANCE": "FLGSLWRKAGTVF-NH2 [VD]",
    "Peptide remaining": 33.7
  },
  {
    "SUBSTANCE": "ILGTILGLLKGL-NH2 [Protonectin, reference compound]",
    "Peptide remaining": 0.0
  },
  {
    "SUBSTANCE": "FLGALWNVAKSVF-NH2 [VmCT1, reference compound]",
    "Peptide remaining": 28.5
  },
  {
    "SUBSTANCE": "FLPLIGRVLSGIL-NH2 [Temporin A, reference compound]",
    "Peptide remaining": 0
  },
  {
    "SUBSTANCE": "GLGALLNVIKSGL-NH2 [AV]",
    "Peptide remaining": 31.1
  },
  {
    "SUBSTANCE": "SLGALINVLKSGG-NH2 [DV]",
    "Peptide remaining": 13.4
  },
  {
    "SUBSTANCE": "FLPLLWRVASGVF-NH2 [VT]",
    "Peptide remaining": 0
  }
]

(Q) Entry FLGTLWGGAKGVF-NH2 [VP] has what Peptide remaining?
(A) 24.2
